Item-by-item account of log10 IC50
Test system: L1210
Test: Cytotoxicity against mouse L1210 cells after 48 hrs by MTA assay
Type: functional, cell-based
Conditions: L1210, 48 h
Each number you see is log10 of IC50, and the unit inside the log is nM.

- Compound: "CC1(C)C=Cc2c(cc(O)c3c(=O)c4c(ccc5cc(Br)ccc54)[nH]c23)O1"
  log10 IC50: 3.53
- Compound: "COc1cc2c(c3c1c(=O)c1c4ccc(Br)cc4ccc1n3C)[C@H]1OC(=O)O[C@H]1C(C)(C)O2 (racemic)"
  log10 IC50: 1.90
- Compound: "COc1cc2c(c3c1c(=O)c1cc4cc(Br)ccc4cc1n3C)[C@@H](OC(C)=O)[C@@H](OC(C)=O)C(C)(C)O2 (racemic)"
  log10 IC50: 2.78
- Compound: "COc1cc2c(c3c1c(=O)c1cc4cc(Br)ccc4cc1n3C)C=CC(C)(C)O2"
  log10 IC50: 3.34
- Compound: "COc1cc2c(c3c1c(=O)c1cc4ccccc4cc1n3C)[C@H]1OC(=O)O[C@H]1C(C)(C)O2 (racemic)"
  log10 IC50: 1.20

Query string: Which measured log10 IC50 value corresponds to COc1cc2c(c3c1c(=O)c1c4ccc(Br)cc4ccc1n3C)[C@@H](O)[C@@H](O)C(C)(C)O2 (racemic) ?
Result string: 3.88

Query string: // query: `Cn1c2cc3ccc(Br)cc3cc2c(=O)c2c(O)cc3c(c21)C=CC(C)(C)O3`
Result string: 2.81

Query string: // query: `COc1cc2c(c3c1c(=O)c1c4ccc(Br)cc4ccc1n3C)C=CC(C)(C)O2`
Result string: 2.69

Each recorded value in this set is attributed to ChEMBL document CHEMBL1770063.
